biological target: CYP3A4 (Homo sapiens (Human), UniProt P08684); assay: CYP3A4 inhibition in human liver microsomes, direct and metabolism-dependent; format: in vitro ADME; details: marker substrate midazolam, 30 minutes preincubation with NADPH; read-out: CYP3A4 Inhibition Midazolam Preincubation EC50
Sequence (P08684 whole entry): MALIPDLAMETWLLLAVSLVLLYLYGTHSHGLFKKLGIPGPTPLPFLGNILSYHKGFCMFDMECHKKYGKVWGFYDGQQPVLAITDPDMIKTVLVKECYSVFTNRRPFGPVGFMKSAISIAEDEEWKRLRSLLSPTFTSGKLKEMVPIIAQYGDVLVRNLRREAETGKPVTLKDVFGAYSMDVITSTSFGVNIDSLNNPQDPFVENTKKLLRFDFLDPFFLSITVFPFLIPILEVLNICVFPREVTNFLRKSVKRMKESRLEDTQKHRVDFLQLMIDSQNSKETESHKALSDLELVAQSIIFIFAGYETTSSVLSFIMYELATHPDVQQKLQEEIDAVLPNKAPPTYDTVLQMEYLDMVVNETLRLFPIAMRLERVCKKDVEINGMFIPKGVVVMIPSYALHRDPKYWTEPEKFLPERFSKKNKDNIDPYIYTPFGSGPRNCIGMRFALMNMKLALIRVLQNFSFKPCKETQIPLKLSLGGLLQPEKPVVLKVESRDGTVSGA
Parameter: pEC50
On this scale, pEC50 is minus log10 of a concentration expressed in M (mol/L).

Problem: Find the recorded pEC50 belonging to COc1ccc(Cn2c([C@@H](Cc3ccccc3)NC=O)nnc2[C@@H](Cc2c[nH]c3ccccc23)NC(=O)c2ccccn2)cc1.O=C(O)C(F)(F)F [Cpd 5] and report it.
Solution: 5.92

Problem: Continue with COc1ccc(Cn2c([C@@H](Cc3c[nH]c4ccccc34)NC(C)=O)nnc2[C@@H](Cc2c[nH]c3ccccc23)NC(=O)c2ccccn2)cc1.O=C(O)C(F)(F)F [Cpd 3]
Solution: 6.01

Continuing:
Problem: Find the recorded pEC50 belonging to COc1ccc(Cn2c([C@@H](Cc3ccccc3)NC(C)=O)nnc2[C@@H](Cc2c[nH]c3ccccc23)NC(=O)c2ccccn2)cc1.O=C(O)C(F)(F)F [Cpd 4] and report it.
Solution: 5.64
